Target or system Glycogen synthase kinase-3 beta (Homo sapiens, UniProt P49841); metric pIC50; compiled from varied reports.
pIC50: −log10 of the molar value.

- O=C(NC1CCCCn2c1nc(-c1ccncn1)cc2=O)c1cccc(Cl)n1 (racemic): 8.30
- Oc1ccc(-c2ccnc(NCCCOc3ccc(Cl)cc3)n2)cc1: ≥ 5.00

The compound listed as O=[N+]([O-])c1ccc(NCCNc2ncc(-c3ncc[nH]3)c(-c3ccc(F)cc3Cl)n2)nc1 has a reported pIC50 of ≥ 6.00

The compound listed as Cn1c(N2CC3C[C@H]2CN3C(=O)c2ccc(Br)cc2)nc(-c2ccncn2)cc1=O has a reported pIC50 of 8.22

The compound listed as N#Cc1ccc(NCCNc2ccc(-n3ccnc3)c(-c3ccc(Cl)cc3Cl)n2)nc1 has a reported pIC50 of ≥ 6.00

* * *

Target or system Glycogen synthase kinase-3 beta (Homo sapiens); metric IC50; compiled from varied reports.

* Nc1nc(NCCNc2ncc(C(=O)O)c(-c3ccc([N+](=O)[O-])cc3)n2)ccc1[N+](=O)[O-] | ≤ 1000 nM

Assay Glycogen synthase kinase-3 beta (Homo sapiens), sample NC(=O)c1cccc(-c2ccnc3[nH]cc(C(=O)c4ccccc4F)c23)c1 , IC50 read: ≤ 10000 nM

Assay Glycogen synthase kinase-3 beta (Homo sapiens), sample O=C(O)c1ccc(/C=N/Nc2ncnc3c2cnn3-c2ccccn2)cc1 , IC50 read: 1000 to 10000 nM

Assay Glycogen synthase kinase-3 beta (Homo sapiens), sample CCN(Cc1cccc(-c2ccnc(Nc3cccc([N+](=O)[O-])c3)n2)c1)C(C)C , IC50 read: 100 nM

Assay Glycogen synthase kinase-3 beta (Homo sapiens), sample Nc1nc(NCCNc2ncc(-c3ncc[nH]3)c(-c3ccc(F)cc3Cl)n2)ccc1[N+](=O)[O-] , IC50 read: ≤ 1000 nM

Assay Glycogen synthase kinase-3 beta (Homo sapiens), sample O=C1NCCNc2cc(ccn2)-c2ncnc(n2)Nc2cccc(c2)CN2CCC[C@H]12 , IC50 read: 100 to 1000 nM

Assay Glycogen synthase kinase-3 beta (Homo sapiens), sample Cn1c(CNC(=O)c2ccc3ncccc3n2)nc(-c2ccncn2)cc1=O , IC50 read: 5 nM

Assay Glycogen synthase kinase-3 beta (Homo sapiens), sample COc1cccc(CCNc2nccc(-c3ccc(C(N)=O)cc3)n2)c1 , IC50 read: ≤ 10000 nM

Assay Glycogen synthase kinase-3 beta (Homo sapiens), sample N#Cc1cccc(-c2ccnc(NCCNc3ccc([N+](=O)[O-])cn3)n2)c1 , IC50 read: ≤ 10000 nM

Assay Glycogen synthase kinase-3 beta (Homo sapiens), sample Cc1cccc(-c2cc3nccn3c(NCCNc3ccc([N+](=O)[O-])c(N)n3)n2)c1C , IC50 read: 23 nM

Assay Glycogen synthase kinase-3 beta (Homo sapiens), sample CN1CCN(Cc2cccc(-c3ccnc(Nc4cccc([N+](=O)[O-])c4)n3)c2)CC1 , IC50 read: 320 nM

Assay Glycogen synthase kinase-3 beta (Homo sapiens), sample CN1CCCC(=O)NCCCc2cc(ccn2)-c2ncnc(n2)Nc2cccc(c2)C1 , IC50 read: 10 to 100 nM

Assay Glycogen synthase kinase-3 beta (Homo sapiens), sample Nc1nc(NCCNc2ncc(N3C(=O)CCC3=O)c(-c3ccc(Cl)cc3Cl)n2)ccc1[N+](=O)[O-] , IC50 read: ≤ 1000 nM

Assay Glycogen synthase kinase-3 beta (Homo sapiens), sample CN(C)CCc1noc(-c2cnc(NCCNc3ccc([N+](=O)[O-])cn3)nc2-c2ccc(C#N)cc2)n1 , IC50 read: ≤ 1000 nM

Assay Glycogen synthase kinase-3 beta (Homo sapiens), sample Cn1c(NCC(O)c2ccccc2)nc(-c2ccncc2)nc1=O (racemic) , IC50 read: 372 nM

Assay Glycogen synthase kinase-3 beta (Homo sapiens), sample CCOC(=O)c1cnc(NCCNc2ccc([N+](=O)[O-])cn2)nc1-c1ccc(C)c(C)c1 , IC50 read: ≤ 10000 nM

Assay Glycogen synthase kinase-3 beta (Homo sapiens), sample NC(=O)c1ccc(-c2ccnc(NCCCCc3ccccc3)n2)cc1 , IC50 read: ≤ 10000 nM

Assay Glycogen synthase kinase-3 beta (Homo sapiens), sample CCOC(=O)c1cnc(NCCNc2ccc(C(=O)OC)cn2)nc1-c1ccc(C#N)cc1 , IC50 read: ≤ 10000 nM

* * *

Target or system UniProtKB P49841; metric IC50; compiled from varied reports.

Some molecules with recorded IC50:
* Cc1c[nH]c(-c2cnc(NCCNc3ccc(C#N)cn3)nc2-c2ccc(Br)cc2Cl)n1 | ≤ 1000 nM
* NC(=O)c1ccc(-c2ccnc(NCc3ccc(Cl)cc3Cl)n2)cc1 | ≤ 10000 nM
* O=C(Nc1c[nH]nc1C(=O)NC1CCNCC1)c1cc(F)cc(F)c1 | < 10000 nM
* Oc1ccc(Nc2nccc(-c3cccc(Cn4cncn4)c3)n2)cc1 | 120 nM
* N#Cc1ccc(NCCNc2ncc(-c3ncc[nH]3)c(-c3ccc(Cl)cc3Cl)n2)nc1 | ≤ 1000 nM

Assay UniProtKB P49841, sample N#Cc1ccc(-c2nc(NCCNc3ccc([N+](=O)[O-])cn3)ncc2-c2ncc[nH]2)cc1 , IC50 read: ≤ 1000 nM

Assay UniProtKB P49841, sample N#Cc1ccc(-c2nc(NCCNc3ccc([N+](=O)[O-])cn3)ncc2C(=O)NCCN)cc1 , IC50 read: ≤ 1000 nM

Assay UniProtKB P49841, sample N#Cc1cnc(NCCNc2ccc([N+](=O)[O-])cn2)nc1-c1ccc(Cl)cc1Cl , IC50 read: ≤ 10000 nM

Assay UniProtKB P49841, sample N#Cc1ccc(CNc2nccc(-c3ccc(C(N)=O)cc3)n2)cc1 , IC50 read: ≤ 10000 nM

* * *

Target or system Glycogen synthase kinase-3 beta (Homo sapiens); metric IC50; compiled from varied reports.

The compound listed as NC(=O)c1ccc(-c2ccnc(NCCCOc3cccc(-c4ccccc4)c3)n2)cc1 has a reported IC50 of ≤ 10000 nM

The compound listed as Nc1nc(NCCNc2ncc(N3C(=O)CC(N4CCOCC4)C3=O)c(-c3ccc(Cl)cc3Cl)n2)ccc1[N+](=O)[O-] (centres unmarked) has a reported IC50 of ≤ 1000 nM

The compound listed as N#Cc1ccc(-c2nc(NCCNc3ccc([N+](=O)[O-])cn3)ncc2C(=O)NCc2ccccc2)cc1 has a reported IC50 of ≤ 1000 nM

The compound listed as O=C1NCCc2cccc(c2)Nc2ncnc(n2)-c2ccnc(c2)CCCN2CCCC12 (centres unmarked) has a reported IC50 of 10 to 100 nM

The compound listed as FC(F)(F)c1cccc(-c2ccnc3[nH]cc(Sc4ccncc4)c23)c1 has a reported IC50 of ≤ 10000 nM

* * *

Target or system UniProt:P49841; metric IC50; compiled from varied reports.

* N#Cc1ccc(-c2ccnc(NCCNc3ccccn3)n2)cc1 | ≤ 10 µM
* CC(C)(C)C1CCC(NC(=O)c2n[nH]cc2NC(=O)c2c(F)cccc2F)CC1 (centres unmarked) | < 10 µM
* O=C(NCc1cccc(C(F)(F)F)c1)c1ccc(-c2ccnc(NCCNc3ccc([N+](=O)[O-])cn3)n2)cc1 | ≤ 10 µM
* NC(=O)c1ccc(-c2ccnc(NCCc3ccc4c(c3)OCO4)n2)cc1 | ≤ 10 µM

Kindly review the next compound as well.
The compound listed as N#Cc1ccc(NC2CCCN(c3nc(-c4ccc(Cl)cc4Cl)ccc3C#N)C2)nc1N (centres unmarked) has a reported IC50 of 0.026 µM

* * *

Target or system Glycogen synthase kinase-3 beta (Homo sapiens, UniProt P49841); metric IC50; compiled from varied reports.
I only need the number, in nM, no unit after it.

Some molecules with recorded IC50:
- Nc1ccccc1C(=O)CCNc1ccccc1[N+](=O)[O-]: 18500
- CCNc1cccc(-c2ccnc(Nc3ccc([N+](=O)[O-])cc3)n2)c1: 40
- NC(=O)C1CCCN(Cc2cccc(-c3ccnc(Nc4cccc([N+](=O)[O-])c4)n3)c2)C1 (stereo not drawn): 40

Kindly review the next molecule as well.
The molecule listed as COc1cc(Cl)ccc1C(=O)NCCc1nc(-c2ccncn2)cc(=O)n1C has a reported IC50 of 85

* * *

Target or system Glycogen synthase kinase-3 beta (Homo sapiens); metric IC50; compiled from varied reports.
I only need the number, in nM, no unit after it.

* COc1ccc(Nc2nccc(-c3cccc(Cn4cncn4)c3)n2)cc1 | 87

Assay Glycogen synthase kinase-3 beta (Homo sapiens), sample COc1cc(C2=C(c3cn(CCCN)c4ccccc34)C(=O)NC2=O)cc(OC)c1OC.Cl , IC50 read: 129

Assay Glycogen synthase kinase-3 beta (Homo sapiens), sample O=[N+]([O-])c1ccc(NCCNc2nc(-c3ccc(Cl)cc3Cl)cc3nccn23)nc1 , IC50 read: 44

Assay Glycogen synthase kinase-3 beta (Homo sapiens), sample COc1cccc(-c2ccnc(Nc3cccc(O)c3)n2)c1 , IC50 read: 80

Assay Glycogen synthase kinase-3 beta (Homo sapiens), sample O=C(Nc1cnccc1N1CCOCC1)c1ccnn2cc(-c3ccc(C(F)(F)F)cc3)nc12 , IC50 read: 0.8

Assay Glycogen synthase kinase-3 beta (Homo sapiens), sample CC1CN(c2ccncc2NC(=O)c2ccnn3cc(C4CC4)nc23)CCO1 (stereo not drawn) , IC50 read: 2.6

Assay Glycogen synthase kinase-3 beta (Homo sapiens), sample COc1ccc(OC)c(-c2ccnc(Nc3cccc([N+](=O)[O-])c3)n2)c1 , IC50 read: 490

Assay Glycogen synthase kinase-3 beta (Homo sapiens), sample CC1CN(c2ccncc2NC(=O)c2ccnn3c(NCC4CC4)cnc23)CCO1 (stereo not drawn) , IC50 read: 5.2

Assay Glycogen synthase kinase-3 beta (Homo sapiens), sample O=[N+]([O-])c1cccc(Nc2nccc(-c3cccc(CN4CCOCC4)c3)n2)c1 , IC50 read: 150

Assay Glycogen synthase kinase-3 beta (Homo sapiens), sample O=c1c(Cl)c(-c2ccncc2)nc2n1CCCN2C[C@@H](O)c1ccccc1 , IC50 read: 28
